RUN PARAMETERS: 323.15 K; 5000 kPa; Liquid; Vibrating tube method
Examples of molecules with documented mass density follow.
PARAMETER MEASURED: mass density (kg/m3)

>>> df
   smiles_representation   value
0            CCCCCOCCCCC  763.48
1                CCCOCCC  724.25
2            CC(C)OC(C)C  699.42
3             COC(C)(C)C  715.73
4        CC(C)CCOCCC(C)C  755.32
5                CCCCOCC  726.77
6            CCOC(C)(C)C  716.51
7                 CCCCOC  721.41

---

RUN PARAMETERS: 303.15 K; 5000 kPa; Liquid; Vibrating tube method
Numbers after ± are expanded uncertainties.
PARAMETER MEASURED: mass density

>>> print(df.to_string())
                                   compound  parameter_measured                value
0                  CCCOCCC [dipropyl ether]        mass density  743.49 ± 0.33 kg/m3
1    CCOC(C)(C)C [2-ethoxy-2-methylpropane]        mass density  736.68 ± 0.33 kg/m3
2  CC(C)CCOCCC(C)C [di-(3-methylbutyl) ether]        mass density  771.15 ± 0.33 kg/m3
3           CC(C)OC(C)C [diisopropyl ether]        mass density  719.61 ± 0.34 kg/m3
4              CCCCCOCCCCC [dipentyl ether]        mass density  779.22 ± 0.32 kg/m3
5    COC(C)(C)C [2-methoxy-2-methylpropane]        mass density  736.27 ± 0.33 kg/m3
6               CCCCOCC [butyl ethyl ether]        mass density  745.81 ± 0.33 kg/m3
7               CCCCOC [butyl methyl ether]        mass density  741.39 ± 0.33 kg/m3

---

RUN PARAMETERS: 298.15 K; 30000 kPa; Liquid; Vibrating tube method
PARAMETER MEASURED: mass density (kg/m3)

>>> df
   smiles_representation  parameter_measured   value
0             COC(C)(C)C        mass density  765.75
1            CCOC(C)(C)C        mass density  765.96
2                 CCCCOC        mass density  769.08
3                CCCCOCC        mass density  772.55
4        CC(C)CCOCCC(C)C        mass density  793.99
5                CCCOCCC        mass density  770.85
6            CCCCCOCCCCC        mass density  800.97
7            CC(C)OC(C)C        mass density  750.46

---

RUN PARAMETERS: 288.15 K; 50000 kPa; Liquid; Vibrating tube method
Numbers after ± are expanded uncertainties.
PARAMETER MEASURED: mass density

   smiles_representation  parameter_measured                value
0                CCCCOCC        mass density  794.37 ± 0.63 kg/m3
1        CC(C)CCOCCC(C)C        mass density   813.09 ± 0.6 kg/m3
2            CC(C)OC(C)C        mass density  774.31 ± 0.67 kg/m3
3             COC(C)(C)C        mass density  788.97 ± 0.64 kg/m3
4            CCOC(C)(C)C        mass density  789.02 ± 0.64 kg/m3
5            CCCCCOCCCCC        mass density  819.54 ± 0.58 kg/m3
6                 CCCCOC        mass density  791.57 ± 0.64 kg/m3
7                CCCOCCC        mass density  792.99 ± 0.64 kg/m3
